In what follows, each item is paired with its MIC for S. aureus (ATCC CRM 6538).
Residues, ends and D or L forms follow the SMILES beside them.
Answers are plain numbers, in µM.

{"compound": "CC[C@H](C)[C@H](NC(=O)[C@H](CC(=O)O)NC(=O)[C@H](Cc1ccccc1)NC(=O)[C@H](CC(C)C)NC(=O)CN)C(=O)N[C@H](C(=O)N[C@@H](CCCCN)C(=O)N[C@@H](CCCCN)C(=O)N[C@@H](CC(C)C)C(=O)N[C@@H](C)C(=O)N[C@@H](CCC(=O)O)C(=O)N[C@@H](CO)C(=O)N[C@@H](Cc1ccccc1)C(N)=O)[C@@H](C)CC [KLA-1] (H-GLFDIIKKLAESF-NH2)", "system name": "S. aureus (ATCC CRM 6538)", "unit text": "µM", "MIC": 16}
{"compound": "CC[C@H](C)[C@H](NC(=O)[C@H](CCCCN)NC(=O)[C@H](CCCCN)NC(=O)[C@@H](NC(=O)[C@@H](NC(=O)[C@H](CCCCN)NC(=O)[C@H](CCCCN)NC(=O)[C@@H](NC(=O)[C@@H](NC(=O)[C@H](CCCCN)NC(=O)[C@H](CCCCN)NC(=O)[C@@H](NC(=O)[C@@H](NC(=O)[C@H](CC(=O)O)NC(=O)[C@H](Cc1ccccc1)NC(=O)[C@H](CC(C)C)NC(=O)CN)[C@@H](C)CC)[C@@H](C)CC)[C@@H](C)CC)[C@@H](C)CC)[C@@H](C)CC)[C@@H](C)CC)C(N)=O [IK-3] (H-GLFDIIKKIIKKIIKKI-NH2)", "system name": "S. aureus (ATCC CRM 6538)", "unit text": "µM", "MIC": 16}

Proceeding to the next compound to report its MIC.
QUERY: Give the measured MIC for CC[C@H](C)[C@H](NC(=O)[C@H](CCCCN)NC(=O)[C@H](CCCCN)NC(=O)[C@@H](NC(=O)[C@@H](NC(=O)[C@H](CC(=O)O)NC(=O)[C@H](Cc1ccccc1)NC(=O)[C@H](CC(C)C)NC(=O)CN)[C@@H](C)CC)[C@@H](C)CC)C(=O)N[C@@H](C)C(=O)N[C@@H](CCC(=O)O)C(=O)N[C@@H](CO)C(=O)N[C@@H](Cc1ccccc1)C(N)=O [aurein 1.2] (H-GLFDIIKKIAESF-NH2)
RESULT: 8

====

tested on: P. aeruginosa (ATCC 9027); format: cell-based; conditions: ATCC 9027
Residues, ends and D or L forms follow the SMILES beside them.
Would you kindly list MIC for each of these compounds?
Numbers only, in µM.

{"compound": "CC[C@H](C)[C@H](NC(=O)[C@H](CCCCN)NC(=O)[C@H](CCCCN)NC(=O)[C@@H](NC(=O)[C@@H](NC(=O)[C@H](CC(=O)O)NC(=O)[C@H](Cc1ccccc1)NC(=O)[C@H](CC(C)C)NC(=O)CN)[C@@H](C)CC)[C@@H](C)CC)C(=O)N[C@@H](C)C(=O)N[C@@H](CCC(=O)O)C(=O)N[C@@H](CO)C(=O)N[C@@H](Cc1ccccc1)C(N)=O [aurein 1.2] (H-GLFDIIKKIAESF-NH2)", "unit text": "µM", "MIC": 64}

Give MIC for all compounds that follow.
1. CC[C@H](C)[C@H](NC(=O)[C@H](CC(=O)O)NC(=O)[C@H](Cc1ccccc1)NC(=O)[C@H](CC(C)C)NC(=O)CN)C(=O)N[C@H](C(=O)N[C@@H](CCCCN)C(=O)N[C@@H](CCCCN)C(=O)N[C@@H](CC(C)C)C(=O)N[C@@H](C)C(=O)N[C@@H](CCC(=O)O)C(=O)N[C@@H](CO)C(=O)N[C@@H](Cc1ccccc1)C(N)=O)[C@@H](C)CC [KLA-1] (H-GLFDIIKKLAESF-NH2)
2. CC[C@H](C)[C@H](NC(=O)[C@H](CC(=O)O)NC(=O)[C@H](Cc1ccccc1)NC(=O)[C@H](CC(C)C)NC(=O)CN)C(=O)N[C@H](C(=O)N[C@@H](CCCCN)C(=O)N[C@@H](CCCCN)C(=O)N[C@@H](CC(C)C)C(=O)N[C@@H](C)C(=O)N[C@@H](CCCCN)C(=O)N[C@@H](CC(C)C)C(=O)N[C@@H](C)C(=O)N[C@@H](CCC(=O)O)C(=O)N[C@@H](CO)C(=O)N[C@@H](Cc1ccccc1)C(N)=O)[C@@H](C)CC [KLA-2] (H-GLFDIIKKLAKLAESF-NH2)
3. CC[C@H](C)[C@H](NC(=O)[C@H](CCCCN)NC(=O)[C@H](CCCCN)NC(=O)[C@@H](NC(=O)[C@@H](NC(=O)[C@H](CCCCN)NC(=O)[C@H](CCCCN)NC(=O)[C@@H](NC(=O)[C@@H](NC(=O)[C@H](CC(=O)O)NC(=O)[C@H](Cc1ccccc1)NC(=O)[C@H](CC(C)C)NC(=O)CN)[C@@H](C)CC)[C@@H](C)CC)[C@@H](C)CC)[C@@H](C)CC)C(=O)N[C@@H](C)C(=O)N[C@@H](CCC(=O)O)C(=O)N[C@@H](CO)C(=O)N[C@@H](Cc1ccccc1)C(N)=O [IK-1] (H-GLFDIIKKIIKKIAESF-NH2)

RESULT:
[64, 16, 16]

====

test system: S. aureus (ATCC CRM 6538)
Residues, ends and D or L forms follow the SMILES beside them.
measured metric: MIC (µM)
Numbers only, in µM.

QUERY: Give the measured MIC for CC[C@H](C)[C@H](NC(=O)[C@H](CCCCN)NC(=O)[C@H](CCCCN)NC(=O)[C@@H](NC(=O)[C@@H](NC(=O)[C@H](CCCCN)NC(=O)[C@H](CCCCN)NC(=O)[C@@H](NC(=O)[C@@H](NC(=O)[C@H](CC(=O)O)NC(=O)[C@H](Cc1ccccc1)NC(=O)[C@H](CC(C)C)NC(=O)CN)[C@@H](C)CC)[C@@H](C)CC)[C@@H](C)CC)[C@@H](C)CC)C(=O)N[C@@H](C)C(=O)N[C@@H](CCC(=O)O)C(=O)N[C@@H](CO)C(=O)N[C@@H](Cc1ccccc1)C(N)=O [IK-1] (H-GLFDIIKKIIKKIAESF-NH2)
RESULT: 8

====

Would you kindly list MBC for each of these molecules?
test system: P. aeruginosa (ATCC 9027); assay type: cell-based; conditions: ATCC 9027, 20 h
Residues, ends and D or L forms follow the SMILES beside them.

Example entries and their recorded answers appear below.
{"molecule": "CC[C@H](C)[C@H](NC(=O)[C@H](CC(=O)O)NC(=O)[C@H](Cc1ccccc1)NC(=O)[C@H](CC(C)C)NC(=O)CN)C(=O)N[C@H](C(=O)N[C@@H](CCCCN)C(=O)N[C@@H](CCCCN)C(=O)N[C@@H](CC(C)C)C(=O)N[C@@H](C)C(=O)N[C@@H](CCCCN)C(=O)N[C@@H](CC(C)C)C(=O)N[C@@H](C)C(=O)N[C@@H](CCC(=O)O)C(=O)N[C@@H](CO)C(=O)N[C@@H](Cc1ccccc1)C(N)=O)[C@@H](C)CC [KLA-2] (H-GLFDIIKKLAKLAESF-NH2)", "result": "16 µM"}
{"molecule": "CC[C@H](C)[C@H](NC(=O)[C@H](CCCCN)NC(=O)[C@H](CCCCN)NC(=O)[C@@H](NC(=O)[C@@H](NC(=O)[C@H](CCCCN)NC(=O)[C@H](CCCCN)NC(=O)[C@@H](NC(=O)[C@@H](NC(=O)[C@H](CCCCN)NC(=O)[C@H](CCCCN)NC(=O)[C@@H](NC(=O)[C@@H](NC(=O)[C@H](CC(=O)O)NC(=O)[C@H](Cc1ccccc1)NC(=O)[C@H](CC(C)C)NC(=O)CN)[C@@H](C)CC)[C@@H](C)CC)[C@@H](C)CC)[C@@H](C)CC)[C@@H](C)CC)[C@@H](C)CC)C(N)=O [IK-3] (H-GLFDIIKKIIKKIIKKI-NH2)", "result": "16 µM"}
{"molecule": "CC[C@H](C)[C@H](NC(=O)[C@H](CCCCN)NC(=O)[C@H](CCCCN)NC(=O)[C@@H](NC(=O)[C@@H](NC(=O)[C@H](CC(=O)O)NC(=O)[C@H](Cc1ccccc1)NC(=O)[C@H](CC(C)C)NC(=O)CN)[C@@H](C)CC)[C@@H](C)CC)C(=O)N[C@@H](C)C(=O)N[C@@H](CCC(=O)O)C(=O)N[C@@H](CO)C(=O)N[C@@H](Cc1ccccc1)C(N)=O [aurein 1.2] (H-GLFDIIKKIAESF-NH2)", "result": "128 µM"}
{"molecule": "CC[C@H](C)[C@H](NC(=O)[C@H](CC(=O)O)NC(=O)[C@H](Cc1ccccc1)NC(=O)[C@H](CC(C)C)NC(=O)CN)C(=O)N[C@H](C(=O)N[C@@H](CCCCN)C(=O)N[C@@H](CCCCN)C(=O)N[C@@H](CC(C)C)C(=O)N[C@@H](C)C(=O)N[C@@H](CCC(=O)O)C(=O)N[C@@H](CO)C(=O)N[C@@H](Cc1ccccc1)C(N)=O)[C@@H](C)CC [KLA-1] (H-GLFDIIKKLAESF-NH2)", "result": "128 µM"}

Proceeding to the next molecule to report its MBC.
QUERY: Write down the reported MBC (system: P. aeruginosa (ATCC 9027)) of CC[C@H](C)[C@H](NC(=O)[C@H](CCCCN)NC(=O)[C@H](CCCCN)NC(=O)[C@@H](NC(=O)[C@@H](NC(=O)[C@H](CCCCN)NC(=O)[C@H](CCCCN)NC(=O)[C@@H](NC(=O)[C@@H](NC(=O)[C@H](CC(=O)O)NC(=O)[C@H](Cc1ccccc1)NC(=O)[C@H](CC(C)C)NC(=O)CN)[C@@H](C)CC)[C@@H](C)CC)[C@@H](C)CC)[C@@H](C)CC)C(=O)N[C@@H](C)C(=O)N[C@@H](CCC(=O)O)C(=O)N[C@@H](CO)C(=O)N[C@@H](Cc1ccccc1)C(N)=O [IK-1] (H-GLFDIIKKIIKKIAESF-NH2)
RESULT: 32 µM
